assay protocol: ATG_Oct_MLP_CIS: Attagene CIS-FACTORIAL HepG2 Assay for human Octamer-Binding Transcription Factor (Oct) (AID 2282993)
applied conditions: HepG2 Attagene cis-factorial Oct reporter, mRNA; actives raise or lower the signal
Activity calls are given as the source filed them. The calls were made as follows: active = hit-call score of the fitted dose curve at least 0.9, where 1 is the maximum; inactive = score below 0.9.
Choose the fitting class; nothing outside active, inactive is accepted.

Test call, this molecule: CCCCCCCCn1sc(Cl)c(Cl)c1=O
inactive

# outcome recorded in this test, key = CCc1cc(Cc2cc(CC)c(N)c(CC)c2)cc(CC)c1N
active

// return assay outcome for C=C(C)CCCC
inactive

Please indicate how the test categorized Brc1ccccn1 .
inactive

What call does the record list for O=C(O)CCC(F)(F)C(F)(F)C(F)(F)F ?
inactive

---
Please indicate how the test categorized OCCCC(F)(F)C(F)(F)C(F)(F)C(F)(F)C(F)(F)C(F)(F)C(F)(F)C(F)(F)F .
inactive

Which result was noted for this molecule in the test: OCCCCl
inactive

====

Read-out: Collagen III, COL3A1 (gene 1281)
assay protocol: BSK_MyoF_CollagenIII: BioMAP Diversity Plus: MyoF Assay for Collagen III Biomarker Activity (AID 2284239)
applied conditions: primary human lung fibroblasts
Activity calls are given as the source filed them. Rule for the calls: active = hit-call score of the fitted dose curve at least 0.9, where 1 is the maximum; inactive = score below 0.9.
// one of class 1 for active, class 0 for inactive, no free text

Known results for compounds:
How did this test come out for CCN(CC)c1ccc(C=O)cc1 ?
class 0

Please indicate how the test categorized FC(F)(F)C(F)(F)C(F)(F)C(F)(F)C(F)(F)C(F)(F)C(F)(F)CCI .
class 0

I would be grateful if you could indicate the recorded call for NS(=O)(=O)C(F)(F)C(F)(F)C(F)(F)C(F)(F)C(F)(F)C(F)(F)F .
class 0

Recorded call for NC(=O)C(F)(F)C(F)(F)C(F)(F)C(F)F ?
class 0

Returns: the outcome recorded for O=C=Nc1cccc2c(N=C=O)cccc12 in this assay.
class 0

Let's switch to this compound now.
Per the assay record, what outcome was assigned to OCC(O)CC(F)(F)C(F)(F)C(F)(F)C(F)(F)F (stereo not given) ?
class 0

====

assay protocol: CEETOX_H295R_DOC: CeeTox H295R High-throughput Steroidogenesis Assay for DOC (AID 2283439)
applied conditions: actives raise or lower the signal
The source made the active and inactive calls. Rule for the calls: active = hit-call score of the fitted dose curve at least 0.9, where 1 is the maximum; inactive = score below 0.9.
Pick one and only one: active, inactive

State the result this test recorded for O=C1c2ccccc2C(=O)c2c(Cl)cccc21 .
inactive

How did this test come out for CSc1ccc(O)cc1C ?
inactive

Call for entry Cc1cccc(C)n1 :
inactive

Further cases:
For Oc1ccc2c(c1)CCC2 , which call appears in the assay record?
inactive

Any idea what this test logged for Nc1cccnc1N ?
inactive

What is the recorded call for this compound in the test? Cc1cc(O)c(C(C)(C)C)cc1C(C)(C)C
inactive

What call does the record list for C[C@]12CC[C@H]3C(=CCc4cc(O)ccc43)[C@@H]1CCC2=O ?
active

For CCN(CC)c1ccc(N=Nc2ccccc2)cc1 , which call appears in the assay record?
inactive

Which outcome was assigned to CCN(CC)c1ccc(C=O)cc1 in this test?
active

Fill in: this test's call for CCn1c2ccccc2c2ccccc21 is ___
inactive

In this assay, the call recorded for CCCCCCCCCCCCC[N+](C)(C)Cc1ccccc1 was what?
active

Fill in: this test's call for N#Cc1ccccc1O is ___
active

====

assay protocol: BSK_SAg_PBMCCytotoxicity: PBMC Cytotoxicity Assessment in the BioMAP Diversity Plus: SAg Assay (AID 2283093);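 also: PBMC viability measured as Alamar Blue reduction fluorescence at 546/580 nm; fitted both ways against DMSO so a hit may be loss or gain of signal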;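 as to AC50: PBMC superantigen activated with SEB plus TSST-1 one hour after compound addition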
applied conditions: primary human HUVEC with PBMC
Method: BSK_SAg is a cell-based, multiplexed-readout assay that uses umbilical vein endothelium and peripheral blood mononuclear cells, a human vascular primary cell co-culture, with measurements taken at 24 hours after chemical dosing in a 96-well plate.BSK_SAg_PBMCCytotoxicity is an assay component measured in the BSK_SAg assay. It measures Alamar blue related to cell death using Alamar Blue Reduction technology.Data from the assay component BSK_SAg_PBMCCytotoxicity was analyzed into 1 assay endpoint. […]
Calls of active or inactive are those of the source. Rule for the calls: active = hit-call score of the fitted dose curve at least 0.9, where 1 is the maximum; inactive = score below 0.9.
quantity kind: AC50

Below are worked cases with known answers.
Please supply the value of reported AC50 for the item Cc1cc(O)c(C(C)(C)C)cc1C(C)(C)C
3.79 µM (active)

Answer with the recorded AC50 of O=C(O)CCC(F)(F)C(F)(F)C(F)(F)F only.
inactive

Identify measured AC50 corresponding to OCC(O)CC(F)(F)C(F)(F)C(F)(F)C(F)(F)F (stereo unspecified)
inactive

Please give the documented AC50 of Nc1cc([N+](=O)[O-])cc(Cl)c1O
inactive

Please indicate AC50 recorded for C=C(C)C(=O)OCC(F)(F)C(F)(F)C(F)(F)C(F)F
inactive

Turning now to a further record.
Tell me AC50 reported for OCC(O)CC(F)(F)C(F)(F)C(F)(F)C(F)(F)C(F)(F)C(F)(F)C(F)(F)C(F)(F)F (stereo unspecified)
inactive

====

Read-out: urokinase plasminogen activator (uPA), PLAU (gene 5328)
assay protocol: BSK_KF3CT_uPA: BioMAP Diversity Plus: KF3CT Assay for urokinase plasminogen activator (uPA) Biomarker Activity (AID 2283075)
applied conditions: primary human keratinocytes with fibroblasts; actives raise or lower the signal
Active and inactive are the calls of the source. Rule for the calls: active = hit-call score of the fitted dose curve at least 0.9, where 1 is the maximum; inactive = score below 0.9.
Reply using exactly one outcome from yes (1) (active), no (0) (inactive)

So what was the verdict on CCOC(=O)CC(=O)C(F)(F)C(F)(F)F in this test?
no (0)

Others:
Identify the outcome logged in this assay for the compound shown: NC(O)(C(F)(F)F)C(F)(F)F
no (0)

Record request — test call for Brc1nc2ccccc2s1
no (0)

====

Read-out: Human Leukocyte Antigen - DR isotype (HLADR), HLA-DRA (gene 3122)
assay protocol: BSK_BE3C_HLADR: BioMAP Diversity Plus: BE3C Assay for Human Leukocyte Antigen - DR isotype (HLADR) Biomarker Activity (AID 2283032)
applied conditions: primary human bronchial epithelial cells; actives raise or lower the signal
Active and inactive are the calls of the source. Rule for the calls: active = hit-call score of the fitted dose curve at least 0.9, where 1 is the maximum; inactive = score below 0.9.
Give your call using only these classes: yes for active, no for inactive

Which outcome was entered for the molecule C[C@]12CC[C@H]3C(=CCc4cc(O)ccc43)[C@@H]1CCC2=O in this test?
no

Would you mind telling me which call this test gave O=C1c2c(O)ccc(Nc3ccc(CCO)cc3)c2C(=O)c2c([N+](=O)[O-])ccc(O)c21 ?
yes

Outcome logged for NC(=O)C(F)(F)C(F)(F)C(F)(F)C(F)(F)C(F)(F)C(F)(F)C(F)(F)F in this assay:
no

Any idea what this test logged for O=C(Cl)C(F)(F)C(F)(F)C(F)(F)C(F)(F)C(F)(F)C(F)(F)C(F)(F)F ?
no

Test call, this molecule: OC(O)C(F)(F)C(F)(F)F
no

***
Assay result, entry O=C(O)C(F)(F)C(F)(F)C(F)(F)C(F)(F)C(F)(F)C(F)(F)C(F)F — outcome?
no

Hey, what did the test say about Cc1cc(O)c(C(C)(C)C)cc1C(C)(C)C ?
yes

What was the test verdict on O=C(O)C(F)(F)C(F)(F)C(F)(F)OC(F)(C(F)(F)F)C(F)(F)F ?
no

Recorded test outcome, item CC(C)(C)c1cc(CCC(=O)NCCCCCCNC(=O)CCc2cc(C(C)(C)C)c(O)c(C(C)(C)C)c2)cc(C(C)(C)C)c1O
no

Please let me know the test result on file for NC(=O)C(F)(F)C(F)(F)C(F)(F)C(F)(F)C(N)=O .
no

Any idea what this test logged for OCC(F)(F)C(F)(F)C(F)(F)CO ?
no

Could you check what this test reported for CCN(CC)c1ccc2c(c1)Oc1cc(N(CC)CC)ccc1C21OC(=O)c2ccccc21 ?
no

// return assay outcome for Nc1cc([N+](=O)[O-])cc(Cl)c1O
no

// outcome(item) with item = O=C=NCc1cccc(CN=C=O)c1
no

Could you check what this test reported for OCC(O)CC(F)(F)C(F)(F)C(F)(F)C(F)(F)C(F)(F)C(F)(F)C(F)(F)C(F)(F)F (centres undefined) ?
no

Entry NCC(F)(F)C(F)(F)C(F)(F)C(F)(F)C(F)(F)C(F)(F)C(F)(F)C(F)(F)F : call = ?
no

Hi, sorry to bother you, what did the test record for OCC(O)CC(F)(F)C(F)(F)C(F)(F)C(F)(F)F (centres undefined) ?
no

Kindly provide the recorded test outcome for the following molecule: O=C1C=CC(=O)N1c1ccc(Cc2ccc(N3C(=O)C=CC3=O)cc2)cc1
yes

// outcome(item) with item = CC1=CC2C3C=CC(C3)C2C1C (centres undefined)
no

====

assay protocol: CCTE_Shafer_MEA_dev_per_network_spike_spike_number_mean: CCTE's Neural Network Formation Assay for Mean Number of Spikes in a Network Spike, Shafer Lab (AID 2284053)
Activity calls are given as the source filed them. How the source made its calls: active means hit-call score of the fitted dose curve at least 0.9, where 1 is the maximum; inactive means score below 0.9.
Reply using exactly one outcome from active, inactive

Some solved entries appear below for comparison.
Hi team, can someone confirm the assay call for NC(=O)C(F)(F)C(F)(F)C(F)(F)F ?
inactive

I would be grateful if you could indicate the recorded call for FC(F)(F)C(F)(F)C(F)(F)C(F)(F)C(F)(F)C(F)(F)C(F)(F)CCI .
inactive

Hi team, can someone confirm the assay call for OCC(F)(F)C(F)(F)C(F)(F)C(F)(F)C(F)(F)C(F)(F)CO ?
inactive

Others:
Status in this test for O=S(=O)(O)CCC(F)(F)C(F)(F)C(F)(F)C(F)(F)F ?
inactive

Dear colleague, could you share the recorded outcome for O=S(=O)(O)CCC(F)(F)C(F)(F)C(F)(F)C(F)(F)C(F)(F)C(F)(F)C(F)(F)C(F)(F)F when you have a moment?
inactive
